Cited source: patent US20080181886A1

Target: T1, Murine APRIL (mouse, UniProt Q9D777 105-241, limits assumed)
T1 sequence (looked up): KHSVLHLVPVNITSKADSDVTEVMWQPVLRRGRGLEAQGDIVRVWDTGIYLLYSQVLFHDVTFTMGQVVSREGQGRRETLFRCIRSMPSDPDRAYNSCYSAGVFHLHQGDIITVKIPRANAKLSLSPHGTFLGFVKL
Assay: shotgun scan, phage display
measuredParameter: F (APRIL)
// return a plain number; no unit text

Solved cases below.
SLSCRKEQGKFYDHLLRDCISCASICAQHPKQCAYFCENKLR (receptor, phage library variant, format as m9) [TACI_d2 G94A]	34
SLSCRKEEGKFYDHLLRDCISCASICGQHPKQCAYFCENKLR (receptor, phage library variant, format as m9) [TACI_d2 Q75E]	0.7

For the next question, use this binder.
Let me know recorded F (APRIL) for SLSCPKEQGKFYDHLLRDCISCASICGQHPKQCAYFCENKLR (receptor, phage library variant, format as m9) [TACI_d2 R72P] , thanks. 0.7
